System: RARa:RXR (NR concentration 270 nM, RXRa partner concentration 90 nM)
assayExplanation: PBM binding z-score (relative to random genomic background probes); higher = stronger binding; sequences stand for … in GC…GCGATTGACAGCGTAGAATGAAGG
propertyLabel: PBM binding z-score
Answers are plain numbers.

Consider the following illustrative entries.
GCAGACAAGTGAAACGCAGGTAACTCAGGGTGGC :: -0.207
AATAGAGGGTCATCGTAGGCCAGAGTACGCACAG :: 4.67
TCTAGCAGGCCAGGGGGTCACTCAAGAGGTACGG :: 5.03
TCTAGTTGGTCACGGAGGTAACACACGACGGGTA :: 0.834

Please go through the list and note PBM binding z-score for each sequence.
1. TCGAGTAGGTTAGGGGCATTCGGAATGGCGTCGA
2. TATACAGGGTCAAAGGCCTGAGTACGAATGTCGA
3. TTTCCAAGGTGAAGGTCGTTGATCCCTCTGTAGA

0.497
5.15
2.21

Please go through the list and note PBM binding z-score for each sequence.
1. CGTCAAAGTTCAACTAACGTAACGTAAAGCACGC
2. CATACATGGTCAGCTAGGCCAGAGTAGGGACGGC
3. ATATGTCGGTTAAGGGTCATTCAGGTTGGTTCGC

[3.3, -0.808, 4.78]

Please go through the list and note PBM binding z-score for each sequence.
1. TCGAGTAGGTTACCAATGAGGCATTCAGCTTTCT
2. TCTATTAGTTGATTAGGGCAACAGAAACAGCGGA

0.302
0.636

====

System: VDR:RXRa (NR concentration 270 nM, RXRa partner concentration 90 nM)
assayExplanation: PBM binding z-score (relative to random genomic background probes); higher = stronger binding; sequences stand for … in GC…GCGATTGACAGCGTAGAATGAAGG
Each entry falls in a class defined on PBM binding z-score; the bands are bottom bin: < 0.5; middle bin: ≥ 0.5 and < 2; top bin: ≥ 2

Example results:
TGTCAAAGTTCAAAGGTAACGTAGGTATCCACAC :: top bin
GCATATAGTTAATACAAGGTGAAAGTCCGATTGT :: bottom bin
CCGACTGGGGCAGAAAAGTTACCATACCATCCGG :: bottom bin
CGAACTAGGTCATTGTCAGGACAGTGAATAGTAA :: top bin
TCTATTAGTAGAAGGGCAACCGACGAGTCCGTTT :: middle bin
ATCGAAAGGTCGAGGTGAATATAGAGAAAGGGAA :: top bin
ATCTCTAGGTAAGACTCAGTTGAGTGAAGAACGC :: bottom bin
CCTACTGGCCCACGAAAGGTCATTGATTCAGTGA :: top bin

Lab note: which band did `CCGGCTGGGGCATAAGGTTACCATAAGCCAGCCC` land in?
bottom bin

Lab note: which band did `CCAGACAGGTGAAAGGTAACTGAGTCTGGTACGC` land in?
middle bin

Lab note: which band did `GCTAGTTGGTCAGTAATAGGTCACACACCGGTCG` land in?
middle bin

Lab note: which band did `AGAATGAGGTTAAGATCAGGTAAACAGAATACAT` land in?
middle bin

Lab note: which band did `CCAGACAGCTGAGAAGGTAACTCAGCCTCGATTA` land in?
bottom bin

Lab note: which band did `GTAACGAGGGCAAAGTTGATAGCATCTGTCGACG` land in?
middle bin

Lab note: which band did `TCTTGTAGATCAAAGGTTAAGAGAGCCGAAGCCT` land in?
middle bin
